Just for reference, patent US20050191240A1 is where these values come from.

Provide the recorded log10 Kd for the entries that follow.
# Experimental target: T1, neurotensin receptors (frozen tissue sections from receptor-positive human tumors) (human, UniProt P30989 1-418)
# T1 construct: whole, on cells
# T1 sequence (P30989 whole entry): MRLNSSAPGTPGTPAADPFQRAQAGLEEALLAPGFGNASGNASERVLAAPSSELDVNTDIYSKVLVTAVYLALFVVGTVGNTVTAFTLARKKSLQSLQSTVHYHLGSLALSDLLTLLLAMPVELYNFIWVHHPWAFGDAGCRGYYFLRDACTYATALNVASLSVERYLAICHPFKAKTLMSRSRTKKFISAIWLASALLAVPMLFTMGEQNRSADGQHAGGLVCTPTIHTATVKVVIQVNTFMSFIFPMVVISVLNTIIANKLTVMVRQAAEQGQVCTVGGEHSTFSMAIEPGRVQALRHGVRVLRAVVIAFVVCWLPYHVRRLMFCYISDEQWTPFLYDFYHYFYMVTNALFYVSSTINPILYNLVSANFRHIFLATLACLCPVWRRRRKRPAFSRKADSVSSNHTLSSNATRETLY
# Assay info: competitive binding vs radioiodinated native neurotensin, human tumor sections
[ ]: non-standard residue; d: D form. The star is where a group is joined. DTPA = O=C(O)CN(CCN(CC(=O)O)CC(=O)O)CCN(CC(=O)O)CC(=O)*; Phe(4-guanidino) = N=C(N)Nc1ccc(C[C@H](N)C(=O)O)cc1; Aba(Apy) = not defined here
// do not treat as linear: log10 of Kd, unit nM

Some solved cases for reference:
Binder	Parameter measured	Result
{DTPA}-[dK]P[Aba(Apy)]RPYIL-OH (reading uncertain, also called Compound III) [DTPA-DLys-Pro-Aba(Apy)-Arg-Pro-Tyr-Ile-Leu-OH]	log10 Kd	1.83
{DTPA}-[dK]P[Phe(4-guanidino)][Phe(4-guanidino)]PYIL-OH (SMILES CC[C@H](C)[C@H](NC(=O)[C@H](Cc1ccc(O)cc1)NC(=O)[C@@H]1CCCN1C(=O)[C@H](Cc1ccc(NC(=N)N)cc1)NC(=O)[C@H](Cc1ccc(NC(=N)N)cc1)NC(=O)[C@@H]1CCCN1C(=O)[C@@H](CCCCN)NC(=O)CN(CCN(CCN(CC(=O)O)CC(=O)O)CC(=O)O)CC(=O)O)C(=O)N[C@@H](CC(C)C)C(=O)O, also called DTPA-DLys-Pro-Phe(4-guanyl)-Phe(4-guanyl)-Pro-Tyr-Ile-Leu-OH) [DTPA-DLys-Pro-(4-Gu)Phe-(4-Gu)Phe-Pro-Tyr-Ile-Leu-OH]	log10 Kd	2.24
{DTPA}-[dK]PR[Aba(Apy)]PYIL-OH (reading uncertain) [DTPA-DLys-Pro-Arg-Aba(Apy)-Pro-Tyr-Ile-Leu-OH]	log10 Kd	3.08
KPXRPYIL (N-terminal DTPA; D-Lys at 1; Gly(PipAm) ((N-amidinopiperidinyl)glycine) at 3 (X), also called Compound II) [DTPA-DLys-Pro-Gly(PipAm)-Arg-Pro-Tyr-Ile-Leu-OH]	log10 Kd	0.43

For every listed record, write down its log10 Kd.
1. KPXRPYIL (N-terminal DTPA; D-Lys at 1; (4-Gu)Phe [Phe(4-guanyl)] at 3 (X), also called Compound I; DTPA-DLys-Pro-Phe(4-guanyl)-Arg-Pro-Tyr-Ile-Leu-OH) [DTPA-DLys-Pro-(4-Gu)Phe-Arg-Pro-Tyr-Ile-Leu-OH]
2. KPRXPYIL (N-terminal DTPA; D-Lys at 1; (4-Gu)Phe [Phe(4-guanyl)] at 4 (X), also called DTPA-DLys-Pro-Arg-Phe(4-guanyl)-Pro-Tyr-Ile-Leu-OH) [DTPA-DLys-Pro-Arg-(4-Gu)Phe-Pro-Tyr-Ile-Leu-OH]

Response:
1. 0.93
2. 1.92
